assay: inhibitors of the yeast RAM network, pilot screen, dse1pr::URA3 reporter, 5-FOA selection (AID 869);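 further: 0% = DMSO wells with no growth and 100% = 10 µM 1-NA-PP1 with full growth; RAM network block rescues cells from 5-FOA so hits raise OD615 growth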; details: S. cerevisiae dse1pr::URA3 5-FOA growth, OD615, 2 d; at 10 µM; stronger effect = higher value; strain carries analog-sensitive mutant Cbk1 kinase
REPORTED_PROPERTY: inhibition (%)
Numbers only, in %.

Cc1cc(C)nc(NS(=O)(=O)c2ccc(NC(=O)c3cccs3)cc2)n1    0.89

I would be grateful if you could provide inhibition for each of the following entries.
1. C=CCNc1ncnc2ccc(Br)cc12
2. Cc1ccc(OCC(O)CN2CCN(c3ccccc3)CC2)cc1 (stereo not given)
3. CC1CCCN(c2nc3c(c(=O)[nH]c(=O)n3C)n2Cc2ccccc2Cl)C1 (stereo not given)
4. Cc1cccc(-n2c(Cc3cc(=O)[nH]c(=O)[nH]3)nnc2SCC(=O)N2CCCCC2)c1
5. COc1ccc(Cl)cc1C(=O)NCC(c1ccco1)N1CCCC1 (stereo not given)

Reply text:
1: 1.87; 2: 1.23; 3: 0.485; 4: 3.3; 5: 2.23

###

experiment: HUVEC growth inhibition – cell-based, human, primary screen (AID 575); conditions: HUVEC proliferation, CellTiter-Glo luminescence, 72 h; at 10 µM; stronger effect = lower value;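 further: 100% = median of untreated cell wells with 0.1% DMSO on each plate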
REPORTED_PROPERTY: viability (%)
Numbers only, in %.

Cc1noc(C)c1C(=O)Nc1ccc(Cl)cc1C(F)(F)F    84.7
COc1ccc(C2CC(c3ccc(Cl)cc3)Nc3nc(NC(=O)c4ccco4)nn32)cc1 (stereo unspecified)    66.3
COc1ccc(NC(=O)CN2CCN(S(=O)(=O)c3ccc(Cl)cc3)CC2)cc1    88
Cc1cc(C)n2nc(S(=O)(=O)N(C)Cc3ccccc3)nc2n1    122
O=C(CCN1C(=O)C2C3C=CC(C3)C2C1=O)N1CCN(c2ccccc2Cl)CC1 (stereo unspecified)    82.3

Inquiry: Bench note: what viability did `CCOC(=O)/N=C(/NC(=O)Nc1ccc(C(=O)OCC)cc1)OC` show?
Reply text: 83.7

###

experiment: growth inhibitors of H69AR lung tumor, primary screen, human, duplicate replicates (AID 580); details: H69AR lung tumor cells viability, ATP luminescence, 72 h; at 10 µM; stronger effect = lower value;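 further: 100% = mean luminescence of untreated wells and 0% = no signal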
REPORTED_PROPERTY: viability (%)
Give bare numbers, in %.

CC(C)COc1nc2ccccc2nc1C(C#N)C(=O)NC1CCCCC1 (stereo not drawn)    84.9
CC(C)N(C(=O)COC(=O)c1ccc(O)cc1)C(C)C    97.6
CCOC(=O)c1[nH]c2ccccc2c1NC(=O)CCN1CCN(C(=O)OCC)CC1    96.8
O=C1CC(c2ccc(F)c(Br)c2)C2=C(CCCC2=O)N1 (stereo not drawn)    102

Please give viability for each item listed below.
1. COC(=O)c1c(NC(=O)CSc2nnc(-c3cccnc3)n2Cc2ccco2)sc(C)c1C
2. CN(C)CCOC(C)(c1ccccc1)c1ccccn1 (stereo not drawn)
3. NCC(O)COc1ccc2c(c1)OCO2 (stereo not drawn)
4. COc1ccc(-n2nc(C(=O)Nc3ccc4c(c3)OCO4)c3c4ccccc4n(C)c3c2=O)cc1

Reply text:
83.7
93.5
100
92.6

I'm hoping you can list viability for every molecule here, please.
1. Cc1ccc2cc3cc(C(=O)N4CC(C)CC(C)C4)oc3nc2c1 (stereo not drawn)
2. COC(=O)c1sc2ccccc2c1NC(=O)c1cccs1
3. CC(=O)C1=C(O)C(=O)N(c2ccc(C(=O)O)cc2)C1c1ccccc1 (stereo not drawn)
4. CN(C)CCCN1c2ccccc2CCc2ccccc21
5. Cc1ccc(/C=N/n2nnnc2N)o1
6. CC1NC(=O)NC1CCCCCC(=O)NCCc1ccccc1 (stereo not drawn)

Reply text:
89.2
82.1
102
77.7
95.1
93.3

Count: 2. Required value per item: viability.
1. Cc1ccc(-c2noc(CCC(=O)N3CCN(c4cccc(C(F)(F)F)c4)CC3)n2)cc1
2. O=C(C1CCCN(S(=O)(=O)c2cnc[nH]2)C1)N1CCN(c2ccc(Cl)cc2)CC1 (stereo not drawn)

Reply text:
[93.1, 111]

# map each molecule to its viability
1. COc1cccc(N2CCN(CC(=O)NCc3cccs3)CC2)c1
2. COC(=O)CN(c1nc(C)c(Cl)c(OC)n1)S(=O)(=O)c1ccc(C)cc1
3. O=C(NCC(=O)N(c1cnc2ccccc2c1)C(C(=O)NC1CCCC1)c1ccncc1)c1ccco1 (stereo not drawn)
4. COc1ccc(Cn2c(CCCO)nc3ccccc32)cc1OC
5. O=S(=O)(Nc1ccccn1)c1ccc(Oc2ccccc2)cc1
6. O=C(COc1nnc2ccccn12)N1CCN(S(=O)(=O)c2ccccc2)CC1
7. O=C(O)C1CCCN1C(=O)Nc1ccc(F)cc1 (stereo not drawn)

Reply text:
1: 99; 2: 84.9; 3: 90.1; 4: 102; 5: 98.8; 6: 97.2; 7: 93.6

###

assay: growth suppression of beta-catenin knockout HCT116, pilot screen, human colon tumor cells (AID 823); settings: CellTiter-Glo, 60 h, at 10 µM, stronger effect = lower value;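 further: 0% = wells killed by 20 µM Hyamine and 100% = untreated DMSO cell wells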
Results filed as inconclusive are left out.
Record form. Attribute: viability. Fill in for each entry.
One number for each entry, in %.

O=C(CSc1nnc(-c2cccnc2)n1Cc1ccco1)c1ccc(Br)cc1    79.9

Hey, can you go through the list below and give me viability for every item?
1. CCc1nnc(NC(=O)CSc2nccn2-c2cccc(C)c2C)s1
2. Cc1onc(-c2ccccc2)c1C(=O)NC(C)C
3. Cc1nn(Cc2ccccc2)c(N)c1C#N
4. COc1ccc(-c2cn3c(C)c(C(=O)N4CCc5ccccc5C4)sc3n2)cc1
5. COC(=O)c1ccccc1NC(=O)c1cc(C2CC2)on1
6. CC(=O)Nc1ccc(NC(=O)c2oc3cc(C)c(C)cc3c2C)cc1

Reply text:
1: 46.2; 2: 105; 3: 107; 4: 87.6; 5: 91.5; 6: 104

Please go through the list and note viability for each compound.
1. O=C1N(O)C2(C=CCCC2)/C(=N\O)C12CCCCC2 (configuration not stated)
2. O=c1[nH]c2ccc(S(=O)(=O)N3CCN(c4ccccc4F)CC3)cc2s1
3. COc1ccc2[nH]c(C)c(CN3CCC(C)CC3)c(=O)c2c1
4. CC1Cn2c(nnc2-c2cccc(N)c2)S1 (configuration not stated)
5. CCc1nc(SCC(=O)c2ccc(C)c(C)c2)n[nH]1
6. CCOc1ccc(NC(=O)c2ccc(N)cc2)cc1
7. CCCNC(=O)CS(=O)Cc1nc(-c2ccc(OC)cc2)oc1C (configuration not stated)

Reply text:
1: 90.1; 2: 93.3; 3: 98.5; 4: 98.7; 5: 102; 6: 91.8; 7: 97.2

For each of the compounds below, state viability.
1. O=C(NCCn1ccc2ccccc21)c1ccc(S(=O)(=O)N2CCOCC2)cc1
2. Nn1c(SC/C=C/c2ccccc2)nnc1-c1ccccn1
3. CC1CC(C)CN(C(=O)CSc2nnc(-c3ccc(Cl)s3)o2)C1 (configuration not stated)
4. CCc1cccc(OCCCCNCCOC)c1
5. CC1CCCCN1c1nnc(NC(=O)Cn2c(=O)oc3ccccc32)s1 (configuration not stated)
6. CC1(C)NC(=O)N(CC(O)COc2ccc(N3C(=O)c4ccccc4C3=O)cc2)C1=O (configuration not stated)
7. CCOC(=O)c1c(NC(=O)c2cc(C3CC3)on2)sc(C(C)=O)c1C

Reply text:
1. 101
2. 103
3. 96.5
4. 89.1
5. 110
6. 102
7. 104

Hello, I would appreciate it if you could give viability for each entry below.
1. CCOCCn1c(-c2ccc(OC)cc2)nc2ccccc21
2. CCOc1ccc(Cn2nnc(C(=O)NCc3ccccc3)c2N)cc1
3. COc1cccc(C2NC(CCSC)(C(=O)O)C3C(=O)N(C(C)C)C(=O)C23)c1O (configuration not stated)
4. Cc1cc(Nc2ccc(F)cc2)n2nc(C)nc2n1
5. CC(=O)c1cccc(NC(=O)N2CCCC2C(=O)Nc2c(C)cccc2C)c1 (configuration not stated)
6. CCCC(=O)Nc1cc(C)c(NC(=O)Cc2ccccc2)cn1
7. Cc1ccccc1C(=O)Nc1ccccc1

Reply text:
1. 93.6
2. 93.2
3. 95
4. 100
5. 94.1
6. 98.2
7. 96.1

Can you give me viability for all of these, one by one?
1. COc1ccc(NC(=O)C(c2ccc(OC)cc2)N(C)C(=O)c2cnccn2)cc1 (configuration not stated)
2. S=c1[nH]nc(-c2ccncc2)n1Cc1ccccc1

Reply text:
1. 101
2. 100

Provide each entry's viability from the list below.
1. CCCCCCn1c(CN2CCN(CCO)CC2)nc2c1c(=O)n(C)c(=O)n2C
2. Cc1ccccc1Cn1cc(S(=O)(=O)CC(=O)Nc2nccs2)c2ccccc21

Reply text:
1: 86.2; 2: 70.4

For each listed entry, give its viability.
1. COc1ccc(C2CCCN2C(=O)Nc2ccc(F)cc2)cc1OC (configuration not stated)
2. NC1=C(c2ccc(F)cc2)C(=O)CS1

Reply text:
[98.8, 91.1]

Hi! Can you tell me viability for each of these compounds?
1. COc1ccc2cc3c(N)nn(C(=O)Cc4ccccc4OC)c3nc2c1
2. Cc1ccc(NC2=CC(=O)CC(c3ccco3)C2)c(N)c1 (configuration not stated)
3. Cc1nnc(Sc2nc3c(c(=O)[nH]c(=O)n3C)n2CCc2ccccc2)s1
4. CC(C)CN(CC(C)C)c1nnc(N)s1

Reply text:
1. 2.78
2. 81.2
3. 102
4. 103
